Test system: celastrol signature
Experiment: Connectivity Map query with the celastrol signature
Format: cell-based, human
Parameters: key: connectivity score, based on Kolmogorov-Smirnov statistic
Details: enrichment of the celastrol signature (1.25 μM celastrol at 6 h, LNCaP) in the compound's Connectivity Map profiles; 6 hr treatment
measure: celastrol score (connectivity score)
The reply should be a number, written without any unit.

Worked examples, 2 compounds total:
Look up celastrol score (connectivity score): Clc1ccc(C(c2ccc(Cl)cc2)n2cc[n+](CC(OCc3ccc(Cl)cc3Cl)c3ccc(Cl)cc3Cl)c2)cc1 (stereo not drawn)
0.334

Suppose we examine the compound C=C1[C@@H](C)[C@H]2[C@H](Cc3ccccc3)NC(=O)[C@]23OC(=O)/C=C/[C@H](O)CCC[C@@H](C)C/C=C/[C@H]3[C@@H]1O ; what celastrol score (connectivity score) value has been reported?
0

New cases:
Which measured celastrol score (connectivity score) value corresponds to CC/C(=C(\c1ccccc1)c1ccc(OCCN(C)C)cc1)c1ccccc1 ?
0

Query: celastrol score (connectivity score); subject: C[C@@H]1C[C@H]2O[C@@H]2/C=C\C=C\C(=O)Cc2c(Cl)c(O)cc(O)c2C(=O)O1 [monorden, reference compound]
0.409

What does the data say about its celastrol score (connectivity score)? Entry: Cc1c(C)c2c(c(C)c1O)CCC(C)(COc1ccc(CC3SC(=O)NC3=O)cc1)O2 (stereo not drawn)
0.42

For the compound COC1=C2C[C@@H](C)C[C@H](OC)[C@H](O)[C@@H](C)/C=C(\C)[C@H](OC(N)=O)[C@@H](OC)/C=C\C=C(/C)C(=O)NC(=CC1=O)C2=O [geldanamycin, reference compound] , what celastrol score (connectivity score) is on record?
0.676
